Test system: HuM2e antibody 23K12
Format: binding, human
# key: entry, value: Signal (peptides that bind to 23K21 and 8I10)
Quick one: just the number, no unit, thanks!

Consider the following illustrative entries.
[[record]]
substance = "536 (MCLCTCVGCSLLTEV; epitope peptide) [compound 536]"
test_target = "HuM2e antibody 23K12"
test_value = 954

[[record]]
substance = "342 (SLLTEVETPIRNEWGCRCNSSSD; epitope peptide) [compound 342]"
test_target = "HuM2e antibody 23K12"
test_value = 1637

[[record]]
substance = "415 (SLLTEVETPIRNEWGCRCNDRSD; epitope peptide) [compound 415]"
test_target = "HuM2e antibody 23K12"
test_value = 860


q: Output reported Signal (peptides that bind to 23K21 and 8I10) of the substance 448 (SLLTEVETPIRNEWGCRCNDSS; epitope peptide) [compound 448] on HuM2e antibody 23K12.
a: 833

q: Report Signal (peptides that bind to 23K21 and 8I10) under test system HuM2e antibody 23K12 for 346 (SLLMEVETPIRNEWGCRCNDSSD; epitope peptide) [compound 346] .
a: 1616

q: Please respond with reported Signal (peptides that bind to 23K21 and 8I10) (system HuM2e antibody 23K12) for 443 (SLLTEVETPIRNEWGCR; epitope peptide) [compound 443] .
a: 864

q: Return reported Signal (peptides that bind to 23K21 and 8I10) for target or system HuM2e antibody 23K12, item 310 (MSCLCECGMSLLTEC; epitope peptide) [compound 310] .
a: 1887

q: Give the observed Signal (peptides that bind to 23K21 and 8I10) of 351 (SLLCEVGSLLTEC; epitope peptide) [compound 351] for HuM2e antibody 23K12.
a: 1564

q: Tell me Signal (peptides that bind to 23K21 and 8I10) of 524 (SLLTEVETPIDNEWGCRCNDSSD; epitope peptide) [compound 524] when tested on HuM2e antibody 23K12.
a: 1001

* * *

System: HuM2e antibody 23K12
Assay type: binding, human
Observation Type: Signal (peptides that bind to 23K21 and 8I10)
Lab note: jot down the number only; don't add units.

Examples with their reported Signal (peptides that bind to 23K21 and 8I10) follow.
[[record]]
substance = "499 (CSLLTEVGMSCLCEC; epitope peptide) [compound 499]"
test_value = 1066

[[record]]
substance = "622 (SLLTEVETPIRMEWGCRCNDSSD; epitope peptide) [compound 622]"
test_value = 805

[[record]]
substance = "531 (MSLCTEVGMSLLTEC; epitope peptide) [compound 531]"
test_value = 970

[[record]]
substance = "652 (SLLTEVEEPIRNEWGCRCNDSSD; epitope peptide) [compound 652]"
test_value = 757

[[record]]
substance = "596 (SLLTEVETPIRNEWFCRCNDSSD; epitope peptide) [compound 596]"
test_value = 837


q: Give the measured Signal (peptides that bind to 23K21 and 8I10) for 506 (SLCTEVGSLLCEV; epitope peptide) [compound 506]
a: 1050

q: Give reported Signal (peptides that bind to 23K21 and 8I10) value for 659 (SLLTEVETPIRNEWGARCNDSSD; epitope peptide) [compound 659]
a: 750

q: Give the reported Signal (peptides that bind to 23K21 and 8I10) for this substance. 456 (CSLLTECGMSLLCEV; epitope peptide) [compound 456]
a: 1294

q: Please supply the value of reported Signal (peptides that bind to 23K21 and 8I10) for the item 407 (SLLTEVETPIRNEWGCRCNDHSD; epitope peptide) [compound 407]
a: 1200
